# Tested on: breast cancer cells
# test summary: Drug sensitivity test on SMGIR-cultured breast cancer cells from patients
# Assay type: cell-based
# experimental parameters: Homo sapiens, breast cancer cells from patient 7, SMGIR-cultured (FIG. 12F)
pIC50: −log10 of the molar value.

>  <compound>
COc1cccc2c1C(=O)c1c(O)c3c(c(O)c1C2=O)C[C@@](O)(C(=O)CO)C[C@@H]3O[C@H]1C[C@H](N)[C@@H](O)[C@H](C)O1 [epirubicin]

>  <pIC50>
6.23

$$$$
